B1: Ankyrin repeat and SOCS box protein 14, residues 532 to 572; numbered along this chain, A6NK59 (parent)
chain: RSLKHLCRLKIRKCMGRLHLRCPVFMSFLPLPNRLKAYVLY

variants of: B1; assay: abundance fitness (aPCA) (normalised: wild type 0, dead -1); higher = more abundant; growth selection in yeast, the domain comes from the species named; settings: Homo sapiens
property_name: abundance fitness
Please state the value as a number alone, without comment.

sequence_data="RSLKHLCRRKIRKCMGRLHLRCPVFMSFLPLPNRLKAYVLY [L9R]" property_name="abundance fitness" recorded_measurement=-0.205
sequence_data="RSLKHLCRLKIRKCMGRLHLRCPVFMSFGPLPNRLKAYVLY [L29G]" property_name="abundance fitness" recorded_measurement=-0.349
sequence_data="RSLKHLCRLKIRKCMGALHLRCPVFMSFLPLPNRLKAYVLY [R17A]" property_name="abundance fitness" recorded_measurement=0.371
sequence_data="RSLKHLCRLKIRKCMGRLHLRHPVFMSFLPLPNRLKAYVLY [C22H]" property_name="abundance fitness" recorded_measurement=-0.052
sequence_data="RSLKHLCRLKIRKCMGRLHLRCPPFMSFLPLPNRLKAYVLY [V24P]" property_name="abundance fitness" recorded_measurement=0.137

Turning to the following variant.
Entry RSLKHLCKLKIRKCMGRLHLRCPVFMSFLPLPNRLKAYVLY [R8K] — recorded abundance fitness = 0.118
